experiment: STM_H9_CystineISnorm_perc: Stemina devTOX quickPredict H9 human embryonic stem cell (hESC)-based Assay for Cystine (CYSS) Metabolite Biomarker, Normalized (AID 2283713)
The source made the active and inactive calls. How the source made its calls: active means hit-call score of the fitted dose curve at least 0.9, where 1 is the maximum; inactive means score below 0.9.
Answer with one of the outcomes given here: active, inactive

Completed entries (count: 2):
compound: CCCCCCCCCCCCCN1CC(C)OC(C)C1 (stereo not drawn)
assigned-label: active

compound: CN(C)C(=O)Nc1ccc(Cl)cc1
assigned-label: inactive

# input for lookup
Kindly provide the recorded test outcome for the following compound: Clc1ccc(C(c2ccc(Cl)cc2)C(Cl)(Cl)Cl)cc1
inactive

====

Read-out: Transforming Growth Factor (TGFA), TGFA (gene 7039)
Experiment: LTEA_HepaRG_TGFA: Life Technologies and Expression Analysis (LTEA) Assay for Transforming Growth Factor (TGFA) using HepaRG (AID 2283532)
Conditions: mRNA level, 48 h; actives raise or lower the signal
Experimental: LTEA_HepaRG is a cell based, multiplexed-readout assay that uses HepaRG, a human liver cell line, with measurements taken at 48 hours after chemical dosing on a 96-well plate.LTEA_HepaRG_TGFA is one of 102 assay component(s) measured in the LTEA HepaRG cell culture assay. It is a marker of Cell proliferation, survival, death.Data from the assay component LTEA_HepaRG_TGFA was analyzed into 1 endpoint. […]
Calls of active or inactive are those of the source. How the source made its calls: active means hit-call score of the fitted dose curve at least 0.9, where 1 is the maximum; inactive means score below 0.9.
Answer with one of the outcomes given here: 1 for active, 0 for inactive

Completed entries (count: 10):
molecule: Cn1cc(-c2ccccc2)c(=O)c(-c2cccc(C(F)(F)F)c2)c1
assigned-label: 0
//
molecule: Nc1cc(Cl)cc(C(=O)O)c1Cl
assigned-label: 0
//
molecule: CCC[CH2][Sn]([Cl])([CH2]CCC)[CH2]CCC
assigned-label: 1
//
molecule: CC(O)CCO (stereo not given)
assigned-label: 0
//
molecule: Cc1ccc([N+](=O)[O-])cc1
assigned-label: 0
//
molecule: CN(C)c1ccc(C(=O)c2ccc(N(C)C)cc2)cc1
assigned-label: 0
//
molecule: CCCCCCCCCCCCCN1CC(C)OC(C)C1 (stereo not given)
assigned-label: 0
//
molecule: c1ccc(NNc2ccccc2)cc1
assigned-label: 0
//
molecule: O=C(N[C@H](c1ccccc1)[C@@H]1CN2CCC1CC2)c1c(Cl)ccc(C(F)(F)F)c1Cl
assigned-label: 1
//
molecule: O=C(Oc1ccc(Br)cc1)N1CCN2CCC1CC2
assigned-label: 0

Kindly provide the recorded test outcome for the following molecule: Nc1ccc(Cc2ccc(N)cc2)cc1
0

Kindly provide the recorded test outcome for the following molecule: ClCCOCCCl
0

Kindly provide the recorded test outcome for the following molecule: Cc1cc(N=Nc2ccccc2C)ccc1N
1

Kindly provide the recorded test outcome for the following molecule: Clc1ccc(C(c2ccc(Cl)cc2)C(Cl)(Cl)Cl)cc1
0

Kindly provide the recorded test outcome for the following molecule: CCCCCCCCOC(=O)c1ccc(C(=O)OCCCCCCCC)c(C(=O)OCCCCCCCC)c1
0

Kindly provide the recorded test outcome for the following molecule: C[N+](C)(C)CC1CO1 (stereo not given)
0
